# credit: patent US9650395B2

System: control Gram-negative E. coli 25922 strain
Experiment: Antibacterial activity, microbroth dilution MIC, E. coli 25922
Assay type: cell-based, Escherichia coli
Settings: Escherichia coli; E. coli 25922, microbroth dilution; read-out: MIC, 25922
quantity kind: MIC

>>> df
                                   compound                         system_under_test    endpoint_result
0  CCc1cc(C(=O)O)c(=O)[nH]c1-c1ccc(N(C)CC)cc1  control Gram-negative E. coli 25922 strain     1 to 3.5 µg/mL
1  CCc1c(-c2ccc(N(C)C)cc2F)[nH]c(=O)c(C(=O)O)c1O  control Gram-negative E. coli 25922 strain  12.5 to 150 µg/mL
2  CCc1cc(C(=O)O)c(=O)[nH]c1-c1ccc(N2CCCCC2)c(OC)c1  control Gram-negative E. coli 25922 strain  12.5 to 150 µg/mL
3  CCc1cc(C(=O)O)c(=O)[nH]c1-c1ccc(N2CCC(F)(F)C2)cc1  control Gram-negative E. coli 25922 strain     1 to 3.5 µg/mL
4  CCc1cc(C(=O)O)c(=O)[nH]c1-c1ccc(N2C[C@H]3CCC[C@@H](N(Cc4ccccc4)Cc4ccccc4)[C@H]3C2)cc1.O=C(O)C(F)(F)F  control Gram-negative E. coli 25922 strain  12.5 to 150 µg/mL
5  CCc1cc(C(=O)O)c(=O)[nH]c1-c1ccc(N2CCC(CN(Cc3ccccc3)Cc3ccccc3)C2)cc1.O=C(O)C(F)(F)F (centres unmarked)  control Gram-negative E. coli 25922 strain  12.5 to 150 µg/mL
6  CCc1cc(C(=O)O)c(=O)[nH]c1-c1ccc(N2C[C@@H](N)[C@@H](OC)C2)cc1.Cl  control Gram-negative E. coli 25922 strain  12.5 to 150 µg/mL
7  CN(C)c1ccc(-c2[nH]c(=O)c(C(=O)O)c(O)c2CO)cc1  control Gram-negative E. coli 25922 strain  12.5 to 150 µg/mL
